Molecular target: HIV-1 NefNL4-3 (Human immunodeficiency virus type 1 group M subtype B, UniProt P03406, A33V/T15A/T51N/V11I)
Test: Surface plasmon resonance binding to recombinant full-length Nef (NL4-3)
Settings: Nef NL4-3 Binding, SPR 1:1 or 2-site fitting KD2, Table 1; 2-site fit, second component
Note to self: use YES only for Kd readings below 4 µM; a reading exactly at 4 µM still gets NO.

Some entries whose results are on file:
molecule="Oc1c(CCc2ccc(F)cc2)c(-c2cnccn2)nn1-c1nc2ccccc2[nH]1 [Compound I-103]" discretelabel=NO
molecule="Oc1c(CCc2ccc(F)cc2)c(C2CCOCC2)nn1-c1nc2ccccc2[nH]1 [Compound I-114]" discretelabel=NO
molecule="Oc1c(CCc2ccc(F)cc2)c(C2CC2)nn1-c1nc2cccnc2[nH]1 [Compound I-308]" discretelabel=YES

Report whether reported Kd is lower than 4 µM (strictly) for COC(=O)N1CCC(CCc2c(-c3ccc(C(F)(F)F)cn3)nn(-c3nc4ccccc4[nH]3)c2O)CC1 [Compound I-715]
YES

Report whether reported Kd is lower than 4 µM (strictly) for CS(=O)(=O)c1ccc(-c2nn(-c3nc4ccccc4[nH]3)c(O)c2CCc2ccc(F)cc2)cc1 [Compound I-148]
YES

Report whether reported Kd is lower than 4 µM (strictly) for CC(C)(C)OC(=O)N1CCC[C@H]1c1nn(-c2nc3ccccc3[nH]2)c(O)c1CCc1ccc(F)cc1 (stereo in doubt) [Compound I-205]
YES

Report whether reported Kd is lower than 4 µM (strictly) for Cn1c(-n2nc(-c3ccc(C(F)(F)F)cc3)c(CCc3ccc(F)cc3)c2O)nc2ccccc21 [Compound I-401]
YES

Report whether reported Kd is lower than 4 µM (strictly) for Oc1c(CCc2ccc(F)cc2)c(-c2ccc(C(F)(F)F)cc2)nn1-c1nc2cccnc2[nH]1 [Compound I-301]
NO

* * *

Target: HIV-1 NefNL4-3 (Human immunodeficiency virus type 1 group M subtype B, UniProt P03406, A33V/T15A/T51N/V11I)
Test: Surface plasmon resonance binding to recombinant full-length Nef (NL4-3)
Settings: Nef NL4-3 Binding, SPR 2-state fitting KD, Table 1; 2-step induced-fit model
// bucketize Kd: group 1 = under 0.5 µM, group 2 = from 0.5 µM up to 3 µM, group 3 = 3 µM and over

Some entries whose results are on file:
compound=CC(C)(O)C(=O)N1CCC(CCc2c(-c3cccc(S(C)(=O)=O)c3)nn(-c3nc4ccccc4[nH]3)c2O)CC1 discretelabel="group 2"
compound="O=C(c1c(O)cc(O)cc1O)N1CCCC1c1nn(-c2nc3ccccc3[nH]2)c(O)c1CCc1ccc(F)cc1 (stereo not drawn)" discretelabel="group 1"
compound=CC(=O)N1CCC(c2nn(-c3nc4ccccc4[nH]3)c(O)c2Cc2ccc(F)c(F)c2)CC1 discretelabel="group 2"
compound=COC(=O)N1CCC(CCc2c(-c3ccc(C(F)(F)F)cn3)nn(-c3nc4ccccc4[nH]3)c2O)CC1 discretelabel="group 2"
compound=Oc1c(CCc2ccc(F)cc2)c(-c2ccc(C(F)(F)F)nc2)nn1-c1nc2ccccc2[nH]1 discretelabel="group 1"

Continue with the compound presented below.
In plain terms, what class is COC(=O)c1ccc(CCc2c(-c3ccccc3)nn(-c3nc4cc(Cl)ccc4[nH]3)c2O)cc1 ?
group 1

* * *

Test system: TZM-bl cell line
Type: cell-based
Conditions: human, 1 μM
experimentalEndpoint: Percent Viability @ 1 μM (TZM-bl cells) (%)
Give the quantity in %, number only.

compound=Cn1c(-n2nc(-c3ccc(S(C)(=O)=O)cc3)c(CCc3ccc(F)cc3)c2O)nc2ccccc21 readoutunit=% measurednumber=99.9
compound="O=C(CN1CCOCC1)N1CCCC1c1nn(-c2nc3ccccc3[nH]2)c(O)c1CCc1ccc(F)cc1 (stereo not drawn)" readoutunit=% measurednumber=97.6
compound="Oc1c(CCc2ccc(F)cc2)c(CC2CCCNC2)nn1-c1nc2ccccc2[nH]1 (stereo not drawn)" readoutunit=% measurednumber=86.1

Short answer for Oc1c(CCc2ccc(F)cc2)c(-c2ccccc2)nn1-c1nc2cc(Cl)ccc2[nH]1 : Percent Viability @ 1 μM (TZM-bl cells) was 89.6

Short answer for O=C(c1cnccn1)N1CCCC(c2nn(-c3nc4ccccc4[nH]3)c(O)c2CCc2ccc(F)cc2)C1 (stereo not drawn) : Percent Viability @ 1 μM (TZM-bl cells) was 101.9

Short answer for O=C(c1cccc(O)n1)N1CCC(c2nn(-c3nc4ccccc4[nH]3)c(O)c2CCc2ccc(F)cc2)CC1 : Percent Viability @ 1 μM (TZM-bl cells) was 98.9

Short answer for CC(=O)N1CCC(CCc2c(-c3ccc(C(F)(F)F)cn3)nn(-c3nc4ccccc4[nH]3)c2O)CC1 : Percent Viability @ 1 μM (TZM-bl cells) was 98.3

Short answer for Cc1ccn(CCc2c(-c3ccc(C(F)(F)F)cc3)nn(-c3nc4ccc(Cl)cc4[nH]3)c2O)n1 : Percent Viability @ 1 μM (TZM-bl cells) was 96.6

Short answer for O=C(OCc1ccccc1)N1CCCC(c2nn(-c3nc4ccccc4[nH]3)c(O)c2CCc2ccc(F)cc2)C1 (stereo not drawn) : Percent Viability @ 1 μM (TZM-bl cells) was 93.7

Short answer for Cn1c(-n2nc(-c3cccc(S(C)(=O)=O)c3)c(CCc3ccc(F)cc3)c2O)nc2ccccc21 : Percent Viability @ 1 μM (TZM-bl cells) was 95.7

* * *

Here, each record is paired with measured Percent Viability @ 1 μM (TZM-bl cells) data.
Test system: TZM-bl cell line
Type: cell-based
Conditions: human, 1 μM
Give the quantity in %, number only.

substancesmiles=CC(C)OC(=O)N1CCC(c2nn(-c3nc4ccccc4[nH]3)c(O)c2CC2CCOCC2)CC1 readoutunit=% measurednumber=95.6

Measured Percent Viability @ 1 μM (TZM-bl cells) for this entry O=C(Cc1ccncc1)N1CCC(c2nn(-c3nc4ccccc4[nH]3)c(O)c2CCc2ccc(F)cc2)CC1 on TZM-bl cell line: 96.0

Measured Percent Viability @ 1 μM (TZM-bl cells) for this entry O=C(c1ccoc1)N1CCC(c2nn(-c3nc4ccccc4[nH]3)c(O)c2CCc2ccc(F)cc2)CC1 on TZM-bl cell line: 93.0

Measured Percent Viability @ 1 μM (TZM-bl cells) for this entry O=C(O)c1ccc(CCc2c(-c3ccccc3)nn(-c3cc(C(F)(F)F)n[nH]3)c2O)cc1 on TZM-bl cell line: 93.8

Measured Percent Viability @ 1 μM (TZM-bl cells) for this entry Nc1ccc(S(=O)(=O)N2CCC(c3nn(-c4nc5ccccc5[nH]4)c(O)c3CCc3ccc(F)cc3)CC2)cc1 on TZM-bl cell line: 78.7

Measured Percent Viability @ 1 μM (TZM-bl cells) for this entry CC(C)S(=O)(=O)N1CCC(c2nn(-c3nc4ccccc4[nH]3)c(O)c2CCc2ccc(F)cc2)CC1 on TZM-bl cell line: 101.1

Measured Percent Viability @ 1 μM (TZM-bl cells) for this entry Cn1ccc(-c2nn(-c3nc4ccccc4[nH]3)c(O)c2CCc2ccc(F)cc2)cc1=O on TZM-bl cell line: 102.5

* * *

Target: HIV-1 NefNL4-3 (Human immunodeficiency virus type 1 group M subtype B, UniProt P03406, A33V/T15A/T51N/V11I)
Assay: Surface plasmon resonance binding to recombinant full-length Nef (NL4-3)
Conditions: read-out: Nef NL4-3 Binding, SPR 1:1 or 2-site fitting KD2; Table 1; 2-site fit, second component
experimentalEndpoint: pKd
The read-out pKd is expressed as -log10 of concentration in moles per litre.

compound=Oc1c(CCc2ccncc2)c(-c2ccc(C(F)(F)F)cc2)nn1-c1nc2ccccc2[nH]1 measurednumber=4.83
compound=CCOC(=O)N1CCC(c2nn(-c3nc4ccccc4[nH]3)c(O)c2CCC2CCOCC2)CC1 measurednumber=4.91
compound="Oc1c(CCc2ccc(F)cc2)c(C2CCCO2)nn1-c1nc2ccccc2[nH]1 (centres unmarked)" measurednumber=5.32

Short answer for Oc1c(CCc2ccc(F)cc2)c(C2CCNCC2)nn1-c1nc2ccc(Cl)cc2[nH]1 : pKd was 5.52

Short answer for Oc1c(CCc2ccc(F)cc2)c(-c2cncc(Br)c2)nn1-c1nc2ccccc2[nH]1 : pKd was 4.77

Short answer for Oc1c(CCc2ccc(F)cc2)c(-c2ccccc2Cl)nn1-c1nc2ccccc2[nH]1 : pKd was 4.61

Short answer for CS(=O)(=O)c1ccc(-c2nn(-c3nc4cc(Cl)ccc4[nH]3)c(O)c2CCC2CCNCC2)cc1 : pKd was 5.21

Short answer for Cn1c(-n2nc(-c3ccc(C(F)(F)F)cc3)c(CCc3ccc(F)cc3)c2O)nc2ccccc21 : pKd was 4.74

* * *

Target: HIV-1 NefNL4-3 (Human immunodeficiency virus type 1 group M subtype B, UniProt P03406, A33V/T15A/T51N/V11I)
Test: Surface plasmon resonance binding to recombinant full-length Nef (NL4-3)
Conditions: Reichert SPR Nef NL43 (M) two-step fitting, KD, two-step induced-fit model; Reichert SPR; Table 3
Here, each record is paired with measured Kd data.
Give the quantity in M, number only.

Here are 5 molecules together with their reported answers.
substancesmiles=CC(=O)N1CCC(Cc2c(-c3ccc(C(F)(F)F)cc3)nn(-c3nc4ccccc4[nH]3)c2O)CC1 experimentalendpoint=Kd measurednumber=1.81e-06
substancesmiles=CC(C)OC(=O)N1CCC(c2nn(-c3nc4cc(Cl)ccc4[nH]3)c(O)c2CCC2CCOCC2)CC1 experimentalendpoint=Kd measurednumber=2.88e-06
substancesmiles=CS(=O)(=O)c1ccc(-c2nn(-c3nc4ccccc4[nH]3)c(O)c2CCc2ccc(F)cc2)cc1 experimentalendpoint=Kd measurednumber=3.33e-10
substancesmiles=CC(C)(O)C(=O)N1CCC(CCc2c(C3CC3)nn(-c3nc4cc(Cl)ccc4[nH]3)c2O)CC1 experimentalendpoint=Kd measurednumber=1.99e-08
substancesmiles=Oc1c(CCc2ccc(F)cc2)c(-c2ccc(C(F)(F)F)cc2)nn1-c1cc(C(F)(F)F)n[nH]1 experimentalendpoint=Kd measurednumber=8.96e-09

Short answer for CC(C)(C)OC(=O)N1CCC(CCc2c(-c3ccc(S(C)(=O)=O)cc3)nn(-c3nc4ccccc4[nH]3)c2O)CC1 : Kd was 3.94e-07

Short answer for Oc1c(CCc2ccc(F)cc2)c(-c2ccc(C(F)(F)F)cc2)nn1-c1nc2cccnc2[nH]1 : Kd was 6e-11

Value source: patent US20220380341A1
